Tested on: MCF7 breast
Assay overview: NCI tumour cell line growth inhibition, 48 h
Measured parameter: TGI

Compound	Experimental target	Result
CC1(C)[C@@H]2C[C@H]1C(Cc1cccc(C[C@H]3c4cc(-c5ccccn5)ncc4[C@H]4C[C@@H]3C4(C)C)c1)c1cc(-c3ccccn3)ncc12 (some centres undefined)	MCF7 breast	> 100 µM
OCC(O)C(O)C(O)C(/C=N\Nc1ncnc2ccc(Br)cc12)=N/Nc1ncnc2ccc(Br)cc12 (centres undefined)	MCF7 breast	> 100 µM
CCOc1cc(C2SCC(=O)N2c2nc3cc4sc(N5C(=O)CSC5c5ccc(O)c(OCC)c5)nc4cc3s2)ccc1O (centres undefined)	MCF7 breast	> 86.3 µM
CC(=O)NC1=CC(=O)c2cc(C)cc(O)c2C1=O	MCF7 breast	7.8 µM
COc1cc2c3c(n(C)c(=O)c2cc1OC)-c1cc2c(cc1/C3=C/[C@H](N)CCCCN)OCO2	MCF7 breast	3.93 µM
CC1(C)Cc2c(Br)c(Br)c(Br)c(OCC(O)CN3CCOCC3)c2O1 (centres undefined)	MCF7 breast	29 µM
c1cncc(CNc2ncn[nH]2)c1	MCF7 breast	> 100 µM
COc1cc(C2S/C(=C/c3ccccc3)C(=O)N2c2cccc([N+](=O)[O-])c2)cc(OC)c1OC (centres undefined)	MCF7 breast	> 100 µM
c1ccc(C2=C(c3ccccc3)P(c3ccccc3)C2)cc1 (centres undefined)	MCF7 breast	> 100 µM
